Tested target: human V2 receptor (Homo sapiens)
Construct: expressed in transfected cells; host or cells: HEK-293
Sequence (P30518 whole entry): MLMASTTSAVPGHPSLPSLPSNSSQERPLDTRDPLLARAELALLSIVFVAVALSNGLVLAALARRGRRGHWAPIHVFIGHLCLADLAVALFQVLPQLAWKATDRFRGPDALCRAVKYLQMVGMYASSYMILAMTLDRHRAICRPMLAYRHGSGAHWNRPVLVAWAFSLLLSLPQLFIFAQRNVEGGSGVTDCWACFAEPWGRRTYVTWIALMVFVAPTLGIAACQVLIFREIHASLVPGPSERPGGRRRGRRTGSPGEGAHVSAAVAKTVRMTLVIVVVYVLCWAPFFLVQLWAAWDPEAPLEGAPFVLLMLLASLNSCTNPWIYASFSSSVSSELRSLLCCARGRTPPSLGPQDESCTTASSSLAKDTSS
Protocol summary: In vitro recombinant vasopressin receptor binding assay (3H-arginine vasopressin displacement), V2
Assay conditions: cloned human receptor membranes from HEK-293 cells
Where a name gives a salt, the structure may show the parent alone.
// values below are reported IC50

| Compound | Value units | IC50 |
| --- | --- | --- |
| CS(=O)(=O)N1Cc2ccccc2N(C(=O)c2ccc(NC(=O)c3ccccc3-c3ccccc3)cc2Cl)C[C@H]1CO [Cpd 7] | µM | 0.05 |
| COC[C@@H]1CN(C(=O)c2ccc(NC(=O)c3ccccc3-c3ccccc3)cc2Cl)c2ccccc2CN1C [Cpd 6, trifluoroacetate] | µM | 0.066 |
| CC(=O)N1Cc2ccccc2N(C(=O)c2ccc(NC(=O)c3ccccc3-c3ccccc3)cc2Cl)C[C@H]1CO [Cpd 12] | µM | 0.028 |
| O=C(Nc1ccc(C(=O)N2C[C@@H](CO)N(Cc3ccccc3)Cc3ccccc32)c(Cl)c1)c1ccccc1-c1ccccc1 [Cpd 1] | µM | 0.5 |

Where do the numbers come from? From patent US7763605B2.
